# SUBJECT_OF_TEST: SARS-CoV-2 spike RBD (WT) (Severe acute respiratory syndrome …, UniProt P0DTC2)
# EXPERIMENT_NOTES: ELISA
# Set-up: unit not given here
# binding score values compiled below
REPORTED_METRIC: binding score

binder="D071 (antibody, V domains shown) VH: EVQLVESGGGLVQPGRSLRLSCTASGFTFGDYAMSWFRQAPGKGLEWLGFIKSKSYGGTTEYAASVKGRFTISREDSKSIAYLQMNSLKTEDTAVYYCTRTIFGVVHFDYWGQGTLVTVSS VL: SYVLTQPPSVSVAPGKTARITCERNNIGSKSVHWYQQKPGRAPVLVIYYDSDRPSGIPERFSGSNSENTATLTISRVEAGDEADYYCQVWNSSSDHPVFGGGTKLTVL" inequality_sign=> test_result=10000
binder="D008 (antibody, V domains shown) VH: QVQLVESGGGVVQPGRSLRLSCAASGFTFRSYGMHWVRQAPGKGLEWVAVISYDGSTKYYADSVKGRFTISRDNSKNTLYLQMNSLRAEDTAVYYCAKGGYYYDSNTYYVYWGQGTLVTVSS VL: DIQMTQSPSSLSASVGDRVTITCQASQDISNHLNWYQQKPGKAPKLLIYDASNLETGVPSRFSGSGSGTDFTFTISSLQPEDIATYYCQQYDNLPPITFGQGTRLEIK" inequality_sign== test_result=12.4
binder="D005 (antibody, V domains shown) VH: QVQLVQSGAEVKKPGASVKVSCKASGYTFTNYYIHWVRQAPGQGLEWMGIINPSAGSTTYAQKFQGRVTMTSDTSTSTVYMELSSLRSEDTAVYYCARAGELIPAARASFQHWGQGTLVTVSS VL: DIQMTQSPSTLSASVGDRVTITCRASQSISTWLAWYQQKPGKAPKILIYKASSLESGVPSRFSGSGSGTEFTLTLSSLQPDDFATYYCQQYNSYSPTFGQGTKVEIK" inequality_sign== test_result=96

Source of measurements: paper PMC9876794
